System: E. coli TESEC Mtb Alr
assaySummary: growth (OD600 after 10 h); higher = more growth (less inhibition)
assayContext: arabinose 100000 nM; compound 0.1 mM; raw OD600 reference: median of DMSO wells 0.201, cell-free background 0.041
Counter-ions that a name gives are not always drawn.
Attribute: growth

| compound | measuredTarget | growth |
| --- | --- | --- |
| NCC[C@H](O)C(=O)N[C@@H]1C[C@H](N)[C@@H](O[C@H]2O[C@H](CN)[C@@H](O)[C@H](O)[C@H]2O)[C@H](O)[C@H]1O[C@H]1O[C@H](CO)[C@@H](O)[C@H](N)[C@H]1O [Amikacin hydrate] | E. coli TESEC Mtb Alr | 0.0425 |
| Cc1onc(-c2c(F)cccc2Cl)c1C(=O)N[C@@H]1C(=O)N2[C@@H]1SC(C)(C)[C@@H]2C(=O)O [Flucloxacillin sodium] | E. coli TESEC Mtb Alr | 0.186 |
| C[C@@](Cc1ccc(O)c(O)c1)(NN)C(=O)O [Carbidopa] | E. coli TESEC Mtb Alr | 0.228 |
| Cc1ccc(Cl)c(Nc2ccccc2C(=O)O)c1Cl [Meclofenamic acid sodium salt monohydrate] | E. coli TESEC Mtb Alr | 0.0566 |
| Cc1cc(-n2c(=O)[nH]c(=O)n(C)c2=O)ccc1Oc1ccc(SC(F)(F)F)cc1 [Toltrazuril] | E. coli TESEC Mtb Alr | 0.0449 |
| CC(COc1ccccc1)NC(C)C(O)c1ccc(O)cc1 (configuration not stated) [Isoxsuprine hydrochloride] | E. coli TESEC Mtb Alr | 0.183 |
| Cc1ccc(C(=O)c2cc(O)c(O)c([N+](=O)[O-])c2)cc1 [Tolcapone] | E. coli TESEC Mtb Alr | 0.0445 |
